Test system: GLXMAW (Soybean, Williams)
assay.info: Preemergence herbicidal evaluation
Assay type: in vivo, Glycine max, (L.) Merr. cv Williams
experimental.parameters: Rate 0.0620 kg/ha; rated 4-5 weeks after treatment

| compound | Preemergence herbicidal rating GLXMAW |
| --- | --- |
| Cn1c(C(F)(F)F)cc(=O)n(-c2ccc3snc(-c4sccc4Cl)c3c2)c1=O | 1.5 |
| C[C@@H]1OC(c2nsc3cc(F)c(-n4c(=O)cc(C(F)(F)F)n(C)c4=O)cc23)O[C@@H]1C (stereo partly drawn) [Compound 63] | 9.0 |
| Cn1c(C(F)(F)F)cc(=O)n(-c2ccc3snc(C4OCC(c5ccccc5)O4)c3c2)c1=O (stereo not drawn) | 2.5 |
| Cn1c(C(F)(F)F)cc(=O)n(-c2ccc3snc(C4OCC5(CO4)CO5)c3c2)c1=O (stereo not drawn) | 3.0 |
| C[C@@H]1C[C@H](C)OC(c2nsc3ccc(-n4c(=O)cc(C(F)(F)F)n(C)c4=O)cc23)O1 (stereo partly drawn) | 9.0 |
| Cn1c(C(F)(F)F)cc(=O)n(-c2ccc3snc(C4(C)OCCO4)c3c2)c1=O | 9.0 |

---

Reported Postemergence herbicidal rating, ORYSAT values for the following compounds.
System: ORYSAT (Rice, Tebonnet)
assay.info: Postemergence herbicidal evaluation
Assay type: in vivo, Oryza sativa, (L.) Tebonnet
experimental.parameters: rate 0.0620 kg/ha
Protocol: In the tests, seedling plants are grown in jiffy flats for about two weeks. […] After spraying, the plants are placed on greenhouse benches and are cared for in accordance with conventional greenhouse procedures. From four to five weeks after treatment, the seedling plants are examined and rated according to the rating system set forth below. Where more than one test is involved for a given compound, the data are averaged. Results of herbicide evaluation are expressed on a rating scale (0-9). […]

| smiles.entry | Postemergence herbicidal rating, ORYSAT |
| --- | --- |
| Cc1cc(C)nc(-c2nsc3ccc(-n4c(=O)cc(C(F)(F)F)n(C)c4=O)cc23)n1 | 2.0 |
| Cn1c(C(F)(F)F)cc(=O)n(-c2ccc3snc(C(SCCO)SCCO)c3c2)c1=O | 5.0 |
| Cn1c(C(F)(F)F)cc(=O)n(-c2ccc3snc(C4OCCCO4)c3c2)c1=O | 6.5 |
| Cc1cccnc1-c1nsc2cc(F)c(-n3c(=O)cc(C(F)(F)F)n(C)c3=O)cc12 | 3.5 |
| Cc1cccnc1-c1nsc2ccc(-n3c(=O)cc(C(F)(F)F)n(C)c3=O)cc12 | 3.5 |
| Cc1ccc(-c2nsc3ccc(-n4c(=O)cc(C(F)(F)F)n(C)c4=O)cc23)s1 | 3.5 |
| C[C@@H]1O[C@@H]1c1nsc2ccc(-n3c(=O)cc(C(F)(F)F)n(C)c3=O)cc12 | 3.0 |
| CCc1cc(-c2nsc3ccc(-n4c(=O)cc(C(F)(F)F)n(C)c4=O)cc23)c(CC)s1 | 3.0 |

---

Reported ORYSAT herbicidal rating (transplanted rice tolerance) values for the following compounds.
Tested on: ORYSAT (Rice, Tebonnet)
assay.info: Flooded paddy, post-transplant rice tolerance
Format: in vivo, Oryza sativa, (L.) Tebonnet
experimental.parameters: flooded paddy, post-transplant rice; rate 0.1250 kg/ha; rated 3-4 weeks after treatment; 0-9 rating scale
measured.parameter: ORYSAT herbicidal rating (transplanted rice tolerance)

| compound | value.reported |
| --- | --- |
| Cn1c(C(F)(F)F)cc(=O)n(-c2ccc3snc(C4OCC(CS(C)(=O)=O)O4)c3c2)c1=O (single isomer, unassigned) [Compound 86] | 5.0 |
| Cn1c(C(F)(F)F)cc(=O)n(-c2ccc3snc(C4OCC(CS(C)(=O)=O)O4)c3c2)c1=O (single isomer, unassigned) [Compound 87] | 3.0 |
| COC1(c2nsc3ccc(-n4c(=O)cc(C(F)(F)F)n(C)c4=O)cc23)N=C(N(C)C)NC1=O (centres unmarked) | 8.0 |
| Cn1c(C(F)(F)F)cc(=O)n(-c2ccc3snc(-c4nc5ccccc5[nH]c4=O)c3c2)c1=O | 0.0 |
| Cn1c(C(F)(F)F)cc(=O)n(-c2ccc3snc(C4OCC(C[S+](C)[O-])O4)c3c2)c1=O (centres unmarked) | 5.0 |
